Recorded pEC50 by entry
Target: hKOR (Homo sapiens, UniProt P41145)
Construct: expressed in transfected cells; host or cells: HEK 293T (ATCC CRL-11268), transient
Sequence (P41145 whole entry): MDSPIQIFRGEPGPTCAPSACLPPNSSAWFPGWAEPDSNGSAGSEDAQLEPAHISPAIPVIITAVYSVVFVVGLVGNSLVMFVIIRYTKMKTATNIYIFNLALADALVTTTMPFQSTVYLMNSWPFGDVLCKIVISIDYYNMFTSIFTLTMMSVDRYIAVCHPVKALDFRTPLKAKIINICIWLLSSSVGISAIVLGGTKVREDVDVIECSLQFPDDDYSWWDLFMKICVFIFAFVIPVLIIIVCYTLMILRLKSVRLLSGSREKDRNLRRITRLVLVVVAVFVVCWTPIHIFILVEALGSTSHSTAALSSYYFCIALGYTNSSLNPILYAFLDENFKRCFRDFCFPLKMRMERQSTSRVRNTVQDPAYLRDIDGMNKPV
Assay: cAMP inhibition assay (GloSensor, HEK 293T), hKOR
Format: cell-based
Conditions: cAMP inhibition; read-out: Gi EC50 hKOR
pEC50: −log10 of the molar value.

molecule | pEC50
O=C(N[C@@H]1CC[C@@]2(O)C3Cc4ccc(O)cc4[C@@]2(CCN3CC2CC2)C1)c1cccc(I)c1 | 9.77
O=C(N[C@@H]1C=CC2[C@H]3Cc4ccc(O)c5c4[C@@]2(CCN3CC2CC2)[C@H]1O5)c1cccc(I)c1 (some centres unmarked) [MP1104, reference compound] | 11.74
O=C(N[C@@H]1CCC2C3Cc4ccc(O)c5c4C2(CCN3CC2CC2)C1O5)c1cccc(I)c1 (some centres unmarked) | 11.80
NCc1ccc(C(=O)N[C@@H]2CC[C@H]3[C@H]4Cc5ccc(O)c6c5[C@@]3(CCN4CC3CC3)[C@H]2O6)cc1 | 10.62
N=C(N)NCc1cccc(C(=O)N[C@@H]2CCC3C4Cc5ccc(O)c6c5[C@@]3(CCN4CC3CC3)C2O6)c1 (some centres unmarked) | 9.85

Measured values drawn from patent US11613547B2 for this set.
